Source listed as PubChem BioAssay AID1259418.

For each entry below, report its AC50 value.
assay-target: T. gondii ME49Luc in IFN-y HeLa, luciferase, 72 h
assay-summary: T. gondii growth inhibition with IFN-gamma, dose response, cell-based, ME49Luc, HeLa, luciferase, 72 h (AID 1259418)
Records with an inconclusive call do not appear. Calls of active or inactive are those of the source.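 The calls were made as follows: active = fitted half-maximal concentration of signal decrease at or below twice the sample's top tested concentration; inconclusive = flat curve between -70 and -30 percent, or poor fit; inactive = flat within 30 percent, signal rise, or potency above limit.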

Consider the following illustrative entries.
{"molecule": "CCc1c(C)sc2c1CCN(Cc1nc(-c3ccc(OC(C)C)cc3)oc1C)C2c1ccccc1 (centres undefined)", "assay-target": "T. gondii ME49Luc in IFN-y HeLa, luciferase, 72 h", "AC50": "> 39 µM (inactive)"}
{"molecule": "COc1cccc(-c2nc(C)c(-c3ccc(SCc4ccc(Cl)cc4)nn3)s2)c1", "assay-target": "T. gondii ME49Luc in IFN-y HeLa, luciferase, 72 h", "AC50": "8.76 µM"}
{"molecule": "OC[C@H]1[C@@H](c2ccc(C#Cc3ccccc3F)cc2)[C@@H]2CN(CC3CCOCC3)CCCCN12", "assay-target": "T. gondii ME49Luc in IFN-y HeLa, luciferase, 72 h", "AC50": "15.9 µM"}
{"molecule": "COC(=O)C[C@H]1CC[C@@H]2[C@H](COc3ccc(NC(=O)Nc4cccc(C#N)c4)cc3C(=O)N2C)O1", "assay-target": "T. gondii ME49Luc in IFN-y HeLa, luciferase, 72 h", "AC50": "19.5 µM"}
{"molecule": "COc1ccc(-c2nc(NCC3CCN(Cc4ccc(C)cc4)CC3)c3ccccc3n2)cc1", "assay-target": "T. gondii ME49Luc in IFN-y HeLa, luciferase, 72 h", "AC50": "8.66 µM"}

Batch of 4 molecules: report AC50 for each.
1. Cc1ccc(-c2csc(-c3cccn3CC(=O)NCCCN3CCCC(C)C3)n2)cc1 (centres undefined)
2. Cc1ccc(N(Cc2nc(-c3ccccc3)oc2C)S(=O)(=O)c2cccs2)cc1
3. O=C(Cc1ccccc1)N1CC(=O)N2[C@H](CO)[C@@H](c3ccc(-c4ccc(F)cc4)cc3)[C@H]2C1
4. O=C1c2c(O)ccc(O)c2C(=O)c2c(NCCNCCO)ccc(NCCNCCO)c21

Reply |
["17.2 µM", "3.53 µM", "22.2 µM", "0.128 µM"]

###

assay-target: T. gondii ME49Luc in IFN-y HeLa, luciferase, 72 h
assay-summary: T. gondii growth inhibition with IFN-gamma, dose response, cell-based, ME49Luc, HeLa, luciferase, 72 h (AID 1259418)
Results filed as inconclusive are left out. Activity calls are given as the source filed them.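 The calls were made as follows: active = fitted half-maximal concentration of signal decrease at or below twice the sample's top tested concentration; inconclusive = flat curve between -70 and -30 percent, or poor fit; inactive = flat within 30 percent, signal rise, or potency above limit.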
property-name: AC50

Consider the following illustrative entries.
{"compound": "CCN1CCCC1CNC(=O)C1CCN(Cc2cc3ccccc3n2Cc2ccccc2Cl)CC1 (centres undefined)", "AC50": "28.7 µM"}
{"compound": "Cc1cc(C)c(S(=O)(=O)N2CCC3(CC2)NCCN=C3NCc2cc(F)cc(F)c2)cc1C", "AC50": "7.83 µM"}
{"compound": "Clc1ccccc1-c1nc(NCCCN2CCN(c3ccccc3)CC2)c2ccccc2n1", "AC50": "> 39 µM (inactive)"}

Batch of 8 compounds: report AC50 for each.
1. COc1ccccc1CNC(=O)CC1N=C2c3ccccc3N=C(SCc3cc(=O)n4cc(Cl)ccc4n3)N2C1=O (centres undefined)
2. Cc1ccc(S(=O)(=O)N2CSC[C@@H]2C(=O)NCCc2csc(-c3ccccc3)n2)cc1
3. CC(C)CC#Cc1ccc([C@@H]2[C@H](CO)N3C(=O)CN(C(=O)c4cccc(F)c4)C[C@@H]23)cc1
4. Cc1ccccc1CN1C[C@@H]2C[C@H](C(=O)Nc3ccccc3)[C@@H](C1)O2
5. Cc1ccc(-c2nc(CN(c3ccccc3)S(=O)(=O)c3ccccc3)c(C)o2)cc1
6. Cc1oc(-c2cccc(Cl)c2)nc1CN(c1ccccc1)S(=O)(=O)c1cccs1
7. COc1cccc(C(=O)Nc2ccc3c(c2)C(=O)N(C)[C@H]2CC[C@@H](CC(=O)N[C@@H](C)c4ccccc4)O[C@H]2CO3)c1
8. Cc1cc2nc(CN3CCCC(CCc4ccc(F)cc4F)C3)cc(=O)n2[nH]1 (centres undefined)

Reply |
29.6 µM
12.9 µM
18.2 µM
10.5 µM
10.3 µM
10.4 µM
> 39 µM (inactive)
> 20 µM (inactive)

Batch of 3 compounds: report AC50 for each.
1. CCOc1ccc(-c2nc(CN(c3cccc(OC)c3)S(=O)(=O)c3ccccc3C)c(C)o2)cc1
2. CC(C)n1c(C(=O)Nc2cccc(F)c2)nc2c1CCN(Cc1ccccc1)C2
3. CC(C)(C)c1ccc(CSC2=Nc3ccccc3C3=NC(CC(=O)NCc4ccco4)C(=O)N23)cc1 (centres undefined)

Reply |
34.5 µM
9.4 µM
27.4 µM

Batch of 5 compounds: report AC50 for each.
1. COc1ccc(-c2nc(NCCN3CCOCC3)c3ccccc3n2)cc1
2. O=C(CC1CC1)N1CC[C@@H]2[C@@H](CO)Nc3ccc(-c4ccc(F)cc4)cc3[C@@H]21
3. CCOc1ccccc1-c1nc(CN(c2cccc(OC)c2)S(=O)(=O)c2ccc(C)cc2)c(C)o1
4. C(=C\c1ccc(C2[C@H]3CNC[C@@H]2N3CC2CCOCC2)cc1)/c1ccccc1 (some centres undefined)
5. Cc1ccc(C)c(NC(=O)N2CCN(Cc3nc(-c4cccc(Cl)c4)oc3C)CC2)c1

Reply |
14.2 µM
21.1 µM
9.59 µM
26.3 µM
> 39 µM (inactive)

###

assay-target: T. gondii ME49Luc in IFN-y HeLa, luciferase, 72 h
assay-summary: T. gondii growth inhibition with IFN-gamma, dose response, cell-based, ME49Luc, HeLa, luciferase, 72 h (AID 1259418)
Inconclusive results are not listed.
For each entry below, report its AC50 value.

{"compound": "O=C(Cc1cccnc1)N1CC(=O)N2[C@H](CO)[C@@H](c3ccc(C4=CCCCC4)cc3)[C@H]2C1", "assay-target": "T. gondii ME49Luc in IFN-y HeLa, luciferase, 72 h", "result": "25.3 µM"}
{"compound": "O=C(CC1Nc2c3ccccc3nc(=S)n2C1=O)NCc1ccccc1Cl (stereo not drawn)", "assay-target": "T. gondii ME49Luc in IFN-y HeLa, luciferase, 72 h", "result": "28.7 µM"}
{"compound": "CCN(CC)CCO[C@H]1CC[C@@]2(C)C(=CC[C@@H]3[C@@H]2CC[C@]2(C)C(=O)CC[C@@H]32)C1", "assay-target": "T. gondii ME49Luc in IFN-y HeLa, luciferase, 72 h", "result": "12 µM"}

Batch of 5 compounds: report AC50 for each.
1. O=C(C[C@H]1CC[C@H]2[C@@H](COC[C@H](O)CN2S(=O)(=O)c2ccccc2)O1)NCC1CCCCC1
2. COc1cccc(C(=O)Nc2ccc3c(c2)C(=O)N(C)[C@@H]2CC[C@H](CC(=O)NCc4ccc(F)cc4)O[C@@H]2CO3)c1
3. Cc1cccc(CNC2=NCCNC23CCN(S(=O)(=O)c2ccc(CC(C)C)cc2)CC3)c1
4. COc1ccc(OCC(=O)N2CCC3(CC2)Nc2cc(OC)ccc2-n2cccc23)cc1
5. Cc1ccc(Cn2c(CN3CCC(C(=O)NCCCN4CCCC4)CC3)cc3ccccc32)cc1

Reply |
["20.8 µM", "9.13 µM", "8.2 µM", "38.3 µM", "13.4 µM"]

###

assay-target: T. gondii ME49Luc in IFN-y HeLa, luciferase, 72 h
assay-summary: T. gondii growth inhibition with IFN-gamma, dose response, cell-based, ME49Luc, HeLa, luciferase, 72 h (AID 1259418)
Records with an inconclusive call do not appear.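 The calls were made as follows: active = fitted half-maximal concentration of signal decrease at or below twice the sample's top tested concentration; inconclusive = flat curve between -70 and -30 percent, or poor fit; inactive = flat within 30 percent, signal rise, or potency above limit.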 Positions of bridges follow the written chain, without caps; N, C: chain ends. Non-standard residues stand in square brackets, D forms with d. Residues, ends and D or L forms follow the SMILES beside them. ξ: configuration not given here. *: point of attachment. Heptanoyl(6-Me) = CC(C)CCCCC(=O)*; ξDab = NCCC(N)C(=O)O; ξT = CC(O)C(N)C(=O)O
Could you please pick one outcome from this set? yes for active, no for inactive

Observe how each entry below is paired with its result.
{"molecule": "CCCCNc1ncnc2c1cnn2-c1ccc(C)cc1C", "discrete-label": "yes"}
{"molecule": "O=C(Nc1c(C(=O)NCc2cccnc2)[nH]c2ccccc12)c1ccc(Cl)cc1", "discrete-label": "yes"}
{"molecule": "Cc1ccc(CNc2nc(-c3ccc(Cl)cc3)nc3ccccc23)cc1", "discrete-label": "yes"}
{"molecule": "Fc1ccc(CSc2nc(NCc3ccccc3)c3ccccc3n2)cc1", "discrete-label": "yes"}
{"molecule": "N#C[C@@H]1[C@H](c2ccc(-c3cccc(F)c3)cc2)[C@@H](CO)N1C(=O)NC1CCCC1", "discrete-label": "yes"}

Ask | Which result was noted for this molecule in the test: `CN(C)CCNC(=O)c1ccc2onc(-c3coc(C4CC4)n3)c2c1`
Reply | yes

Ask | Which result was noted for this molecule in the test: `O=C(C(=O)N1CCN(c2ncnc3c2nnn3Cc2ccccc2)CC1)c1c[nH]c2ccccc12`
Reply | yes

Ask | Which result was noted for this molecule in the test: CC(C)CCCCC(=O)NC(CCN)C(=O)NC(C(=O)NC(CCN)C(=O)NC1CCNC(=O)C(C(C)O)NC(=O)C(CCN)NC(=O)C(CCN)NC(=O)[C@H](CC(C)C)NC(=O)[C@@H](CC(C)C)NC(=O)C(CCN)NC1=O)C(C)O (stereo partly drawn) ({Heptanoyl(6-Me)}-[ξDab][ξT][ξDab][ξDab][ξDab][dL]L[ξDab][ξDab][ξT]; lactam 4-C)
Reply | yes
